test system: SNB-19 CNS; test: NCI-60 one-dose screen, 48 h; conditions: 10 µM unless noted
About 83,000 compounds went through this panel and 20% of them were active in at least one assay; those are over-represented in the sample as a whole. Activity calls are given as the source filed them. Rule for the calls: active = growth percent below 10; inactive = the rest.
Give one outcome, nothing more. List: active, inactive

>>> class_assignment("COc1ccc2c(c1)C(=Nc1cc(OC)c(OC)c(OC)c1)C(=O)N2")
"inactive"
>>> class_assignment("O[N+]1=CC=CCC1=S.On1ccccc1=S.[Zn]")
"active"
>>> class_assignment("CCSc1ncc(Br)c(Sc2nc(N)nc3nc[nH]c23)n1")
"inactive"
>>> class_assignment("CC1=C([Se]CC(OC(=O)[C@@H](CSSC(C)(C)C)NC(=O)C(C)(C)C)C(=O)NCCCCCC(=O)OCc2ccccc2)C(=O)c2ccccc2C1=O (some centres not stated)")
"active"
>>> class_assignment("c1ccc2nc(Cn3c[n+](Cc4ccc5ccccc5n4)c4ccccc43)ccc2c1")
"inactive"
>>> class_assignment("CCOc1cc(CCNS(=O)(=O)c2ccc(C)cc2)c(C(C)=O)cc1OCC")
"inactive"

Now let's try a different one.
Asked: Kindly provide the recorded test outcome for the following compound: CC(=O)N1N=C(c2ccc(Nc3ccnc4cc(Cl)ccc34)cc2)CC1c1ccc(Cl)cc1 (configuration not stated)
Given back: inactive

----------
test system: TK-10 renal; experiment: NCI-60 one-dose screen, 48 h; conditions: 10 µM unless noted
The panel holds about 83,000 compounds, 20% with a hit somewhere; the sample as a whole holds those more often. Active and inactive are the calls of the source. How the source made its calls: active means growth percent below 10; inactive means the rest.
Give one outcome, nothing more. List: active, inactive

>>> class_assignment("COc1ccc(-c2cnc(SCC(=O)Nc3ccc(-c4nc5ccccc5s4)cc3)n2-c2ccc(OC)cc2)cc1")
"inactive"

Asked: Kindly provide the recorded test outcome for the following compound: NS(=O)(=O)c1ccc(-n2nc(-c3ccc(Br)cc3)ccc2=O)cc1
Given back: inactive

Asked: Kindly provide the recorded test outcome for the following compound: CCN(CC)c1ccc(N=C2C=CC(=O)C=C2NC(C)=O)cc1
Given back: inactive

Asked: Kindly provide the recorded test outcome for the following compound: COc1ccc2c(c1)sc1nc(-c3ccc(Br)cc3)cn12
Given back: inactive

Asked: Kindly provide the recorded test outcome for the following compound: Cc1n(Cc2ccc3ccccc3c2)cc[n+]1Cc1ccc2ccccc2c1
Given back: inactive

----------
tested on: M14 melanoma; test: NCI-60 one-dose screen, 48 h (100 = growth as untreated, 0 = no growth, -100 = all killed); conditions: 10 µM unless noted
Compounds without any hit were thinned out: in the full panel of roughly 83,000, 20% have a hit. Calls of active or inactive are those of the source. Rule for the calls: active = growth percent below 10; inactive = the rest.
Recorded Metric: growth

Reference set, count: 5
>>> observed_value("CC(NC(N)=S)c1ccccc1 (stereo not drawn)")
"104% (inactive)"
>>> observed_value("COc1ccc(/C=C2/SC(=Nc3c(C)nn(-c4ccccc4)c3N)NC2=O)cc1")
"17.2% (inactive)"
>>> observed_value("Cc1cc(C)c(C(=O)c2cccs2)c(C)c1")
"103% (inactive)"
>>> observed_value("Oc1c(Cl)cc(Cl)c(Cl)c1Cc1c(O)c(Cl)cc(Cl)c1Cl")
"16.3% (inactive)"
>>> observed_value("CCSc1nc(-c2ccc(F)cc2)c(C#N)c(=O)[nH]1")
"110% (inactive)"

# return growth for each item in the list
1. CC(C)Sc1nc(-c2ccc(Br)cc2)c(C#N)c(N2CCCCC2)n1
2. CCOC(=O)c1sc(NC(=O)COc2cccc(/C=C3\CCc4cc(OC)ccc4C3=O)c2)nc1C

Given back:
104% (inactive)
89% (inactive)

Asked: Name the reported growth value associated with the compound COc1ccc2c(c1)[n+](=O)c(C(=O)/C=C/c1cc(OC)c(OC)c(OC)c1)c(C)n2[O-]
Given back: 80.1% (inactive)

This collection of values is drawn from PubChem BioAssay (NCI).
